Cited source for all entries: ChEMBL document CHEMBL4257449

- System: Escherichia coli
- protocol.description: Bactericidal activity against Escherichia coli ATCC 35210 incubated for 24 hrs followed by serial sub-cultivation and measured after 24 hrs by microdilution method
- Assay type: functional
Recorded MBC99.5, one value per entry.

[
  {
    "molecule": "O=C(Cc1nsc2ccccc12)NN1C(=O)CSC1c1ccccc1 (stereo not given)",
    "test.system": "Escherichia coli",
    "units.text": "×10⁻² umol/ml",
    "MBC99.5": 40.5
  },
  {
    "molecule": "O=C(N/N=C/c1c(F)cccc1F)c1nsc2ccccc12",
    "test.system": "Escherichia coli",
    "units.text": "×10⁻² umol/ml",
    "MBC99.5": 50.4
  },
  {
    "molecule": "O=C(NN1C(=O)CSC1c1ccccc1F)c1nsc2ccccc12 (stereo not given)",
    "test.system": "Escherichia coli",
    "units.text": "×10⁻² umol/ml",
    "MBC99.5": 40.2
  },
  {
    "molecule": "O=C(NN1C(=O)CSC1c1c(Cl)cccc1Cl)c1nsc2ccccc12 (stereo not given)",
    "test.system": "Escherichia coli",
    "units.text": "×10⁻² umol/ml",
    "MBC99.5": 79
  },
  {
    "molecule": "O=C(NN1C(=O)CSC1c1cccc(Cl)c1)c1nsc2ccccc12 (stereo not given)",
    "test.system": "Escherichia coli",
    "units.text": "×10⁻² umol/ml",
    "MBC99.5": 20.5
  }
]

---

- Tested on: Listeria monocytogenes
- protocol.description: Bactericidal activity against Listeria monocytogenes NCTC 7973 incubated for 24 hrs followed by serial sub-cultivation and measured after 24 hrs by microdilution method
- Assay type: functional
endpoint.name: MBC99.5

[
  {
    "compound": "O=C(N/N=C/c1c(F)cccc1F)c1nsc2ccccc12",
    "result": "50.4 ×10⁻² umol/ml"
  },
  {
    "compound": "O=C(Cc1nsc2ccccc12)NN1C(=O)CSC1c1ccccc1Cl (centres undefined)",
    "result": "74.4 ×10⁻² umol/ml"
  },
  {
    "compound": "O=C(Cc1nsc2ccccc12)N/N=C/c1c(F)cccc1F",
    "result": "23.2 ×10⁻² umol/ml"
  },
  {
    "compound": "O=C(NN1C(=O)CSC1c1ccccc1)c1nsc2ccccc12 (centres undefined)",
    "result": "42.2 ×10⁻² umol/ml"
  }
]

---

- System: Talaromyces funiculosus
- protocol.description: Fungicidal activity against Penicillium funiculosum ATCC 36839 incubated for 72 hrs followed by serial sub-cultivation for 72 hrs and measured after 72 hrs by serial dilution method
- Assay type: functional

[
  {
    "molecule": "O=C(Cc1nsc2ccccc12)NN1C(=O)CSC1c1c(F)cccc1F (stereo unspecified)",
    "test.system": "Talaromyces funiculosus",
    "units.text": "×10⁻² umol/ml",
    "MFC99.5": 9.9
  },
  {
    "molecule": "c1ccc(-c2ccc(C(c3ccccc3)n3ccnc3)cc2)cc1 (stereo unspecified)",
    "test.system": "Talaromyces funiculosus",
    "units.text": "×10⁻² umol/ml",
    "MFC99.5": 80
  },
  {
    "molecule": "O=C(NN1C(=O)CSC1c1c(Cl)cccc1Cl)c1nsc2ccccc12 (stereo unspecified)",
    "test.system": "Talaromyces funiculosus",
    "units.text": "×10⁻² umol/ml",
    "MFC99.5": 79
  },
  {
    "molecule": "O=C(NN1C(=O)CSC1c1ccccc1F)c1nsc2ccccc12 (stereo unspecified)",
    "test.system": "Talaromyces funiculosus",
    "units.text": "×10⁻² umol/ml",
    "MFC99.5": 21.4
  },
  {
    "molecule": "O=C(Cc1nsc2ccccc12)NN1C(=O)CSC1c1cccc(Cl)c1 (stereo unspecified)",
    "test.system": "Talaromyces funiculosus",
    "units.text": "×10⁻² umol/ml",
    "MFC99.5": 19.8
  },
  {
    "molecule": "O=C(Cc1nsc2ccccc12)NN1C(=O)CSC1c1ccc(Cl)cc1 (stereo unspecified)",
    "test.system": "Talaromyces funiculosus",
    "units.text": "×10⁻² umol/ml",
    "MFC99.5": 19.8
  },
  {
    "molecule": "O=C(Cc1nsc2ccccc12)N/N=C/c1c(F)cccc1F",
    "test.system": "Talaromyces funiculosus",
    "units.text": "×10⁻² umol/ml",
    "MFC99.5": 12.1
  },
  {
    "molecule": "O=C(Cc1nsc2ccccc12)N/N=C/c1c(F)cccc1Cl",
    "test.system": "Talaromyces funiculosus",
    "units.text": "×10⁻² umol/ml",
    "MFC99.5": 23.2
  },
  {
    "molecule": "O=C(NN1C(=O)CSC1c1cccc(F)c1)c1nsc2ccccc12 (stereo unspecified)",
    "test.system": "Talaromyces funiculosus",
    "units.text": "×10⁻² umol/ml",
    "MFC99.5": 21.4
  },
  {
    "molecule": "O=C(NN1C(=O)CSC1c1ccc(Cl)cc1)c1nsc2ccccc12 (stereo unspecified)",
    "test.system": "Talaromyces funiculosus",
    "units.text": "×10⁻² umol/ml",
    "MFC99.5": 20.5
  },
  {
    "molecule": "O=C(NN1C(=O)CSC1c1ccc(F)cc1)c1nsc2ccccc12 (stereo unspecified)",
    "test.system": "Talaromyces funiculosus",
    "units.text": "×10⁻² umol/ml",
    "MFC99.5": 53.6
  },
  {
    "molecule": "O=C(NN1C(=O)CSC1c1ccccc1Cl)c1nsc2ccccc12 (stereo unspecified)",
    "test.system": "Talaromyces funiculosus",
    "units.text": "×10⁻² umol/ml",
    "MFC99.5": 38.4
  },
  {
    "molecule": "CC(=O)N1CCN(c2ccc(OCC3COC(Cn4ccnc4)(c4ccc(Cl)cc4Cl)O3)cc2)CC1 (stereo unspecified)",
    "test.system": "Talaromyces funiculosus",
    "units.text": "×10⁻² umol/ml",
    "MFC99.5": 95
  },
  {
    "molecule": "O=C(NN1C(=O)CSC1c1c(F)cccc1Cl)c1nsc2ccccc12 (stereo unspecified)",
    "test.system": "Talaromyces funiculosus",
    "units.text": "×10⁻² umol/ml",
    "MFC99.5": 73.5
  },
  {
    "molecule": "O=C(Cc1nsc2ccccc12)NN1C(=O)CSC1c1ccccc1Cl (stereo unspecified)",
    "test.system": "Talaromyces funiculosus",
    "units.text": "×10⁻² umol/ml",
    "MFC99.5": 19.8
  },
  {
    "molecule": "O=C(NN1C(=O)CSC1c1c(F)cccc1F)c1nsc2ccccc12 (stereo unspecified)",
    "test.system": "Talaromyces funiculosus",
    "units.text": "×10⁻² umol/ml",
    "MFC99.5": 20.4
  }
]
